src = PubChem BioAssay (NCI)

- Test system: U251 CNS
Below, each of the compounds is paired with its reported GI50 value.
EXPERIMENTAL READOUT: GI50

compound="CCCCCCCCO/N=C\\c1c2c(O)c3c(O)c(C)c4c(c3c1O)C(=O)C(C)(O/C=C\\C(OC)C(C)C(OC(C)=O)C(C)C(O)C(C)C(O)C(C)/C=C\\C=C(\\C)C(=O)N2)O4 (configuration not stated)" assay_value="1.14 µM"
compound=C=C1C(=O)O[C@H]2[C@H]1CC/C(COC(=O)NCCc1c[nH]c3ccccc13)=C\CC[C@@]1(C)O[C@@H]21 assay_value="4.88 µM"
compound=CCSc1nc(=S)[nH]c2[nH]ncc12 assay_value="> 100 µM"
compound=COc1ccc2c(c1)C(=O)c1c-2c(N2CCN(C(=O)CN(C)C)CC2)nc2ccccc12 assay_value="14.9 µM"
compound=COc1cc(/C=C2\C[C@H]3[C@@H]4CC=C5C[C@@H](OC(C)=O)CC[C@]5(C)[C@H]4CC[C@]3(C)[C@H]2OC(C)=O)ccc1OCCCn1ccnc1 assay_value="6.28 µM"
compound="CCOC(=O)c1ccc(C(O)CC(=O)OC(C)(C)C)[nH]1 (configuration not stated)" assay_value="39.5 µM"
compound=C=C1C(=O)O[C@H]2[C@H]1CC/C(COC(=O)N[C@@H](Cc1c[nH]c3ccccc13)C(=O)OC)=C\CC[C@@]1(C)O[C@@H]21 assay_value="2.42 µM"
compound=Cc1c(N(C(=O)c2cc(-c3cc(Cl)ccc3C(=O)N3Cc4ccccc4C[C@H]3CN3CCOCC3)n(C)c2C)c2ccc(O)cc2)cc(C#N)n1C assay_value="18.9 µM"
compound=CCC(=O)Nc1ccc2c(c1)CN1C(=O)c3ccccc3C1=N2 assay_value="> 100 µM"
compound=CCC[CH2][Sn]([CH2]CCC)([O]C(=O)c1cccc(F)c1F)[O][Sn]([CH2]CCC)([CH2]CCC)[O]C(=O)c1cccc(F)c1F assay_value="0.147 µM"
compound=Nc1c(C(=O)Nc2cccc3ccccc23)sc2nc3c(cc12)CCCCC3 assay_value="0.998 µM"
compound=COc1cc2c(cc1OCCCCCN1CCN(c3cc(=O)oc4c(C)c(OC)ccc34)CC1)N=C[C@@H]1CCCN1C2=O assay_value="< 0.01 µM"
